Test system: HCT116
Assay: MTT cell viability assay, HCT116
Format: cell-based, human
Settings: ratio of IC50 values healthy (HEK293) / HCT116
# Selectivity index (SI) annotations
MEASUREMENT_KIND: Selectivity index (SI)

>>> df
                                   compound  result_number
0  CC(C)C1CC[C@]2(CO)CC[C@]3(C)C(CCC4[C@@]5(C)CC(C#N)=CC(=O)C5CC[C@]43C)C12 (some centres unmarked)           1.56
1  COC(=O)[C@]12CCC(C(C)C)C1C1CCC3[C@@](C)(CCC#N)C(C(=O)CBr)CC[C@@]3(C)[C@]1(C)CC2 (some centres unmarked)           1.79
2  C=C1C[C@H](C#N)C[C@@]2(C)C1CC[C@]1(C)C2CCC2C3C(C(C)C)CC[C@]3(CO)CC[C@]21C (some centres unmarked)           1.50
3  COC(=O)[C@]12CCC(C(C)C)C1C1CCC3[C@@]4(C)C[C@@H](C#N)C[C@H](O)C4CC[C@@]3(C)[C@]1(C)CC2 (some centres unmarked)           1.23
4  COC(=O)[C@]12CC[C@@H](C(C)C)[C@@H]1[C@H]1CC[C@@H]3[C@@](C)(CCC#N)[C@H](C(=O)C(Br)Br)CC[C@@]3(C)[C@]1(C)CC2           2.95

---

Test system: MS
Assay: MTT cell viability assay, MS
Format: cell-based, human
Settings: Homo sapiens; MS, MTT, 72 h of treatment; read-out: IC50 Values (Mean ± SD)
MEASUREMENT_KIND: log10 of IC50 (log10 of the value in µM)

COMPOUND	TGT	log10 of IC50
COC(=O)[C@]12CCC(C(C)C)C1C1CCC3[C@@](C)(CCC#N)C(C(=O)CBr)CC[C@@]3(C)[C@]1(C)CC2 (stereo partly drawn)	MS	1.66
COC(=O)[C@]12CC[C@@H](C(C)C)[C@@H]1[C@H]1CC[C@@H]3[C@@](C)(CCC#N)[C@H](C(=O)C(Br)Br)CC[C@@]3(C)[C@]1(C)CC2	MS	1.22
COc1cccc2c1C(=O)c1c(O)c3c(c(O)c1C2=O)C[C@@](O)(C(=O)CO)C[C@@H]3O[C@H]1C[C@H](N)[C@H](O)[C@H](C)O1 [Dox, doxorubicin, reference compound]	MS	0.11
COC(=O)[C@]12CCC(C(C)C)C1C1CCC3[C@@]4(C)C[C@@H](C#N)C[C@H](O)C4CC[C@@]3(C)[C@]1(C)CC2 (stereo partly drawn)	MS	1.35
CC(C)C1CC[C@]2(CO)CC[C@]3(C)C(CCC4[C@@]5(C)CC(C#N)=CC(=O)C5CC[C@]43C)C12 (stereo partly drawn)	MS	1.84

---

COMPOUND	melting point
CC(C)C1CC[C@]2(CO)CC[C@]3(C)C(CCC4[C@@]5(C)C[C@@H](C#N)C[C@H](O)C5CC[C@]43C)C12 (stereo partly drawn) [compound 18]	205.7 °C
C=C(C=O)C1CC[C@]2(C)C(CCC3C4C(C(C)C)CC[C@]4(COC(=O)c4ccccc4)CC[C@]32C)[C@@]1(C)CCC#N (stereo partly drawn) [compound 4]	176.5 °C
COC(=O)[C@]12CCC(C(C)C)C1C1CCC3[C@@]4(C)CC(C#N)=C(C)C4CC[C@@]3(C)[C@]1(C)CC2 (stereo partly drawn) [compound 23]	168.5 °C
C=C(CBr)C1CC[C@]2(C)C(CCC3C4C(C(C)C)CC[C@]4(COC(=O)c4ccccc4)CC[C@]32C)[C@@]1(C)CCC#N (stereo partly drawn) [compound 6]	87.9 °C
C=C1C2CC[C@]3(C)C(CCC4C5C(C(C)C)CC[C@]5(C(=O)OC)CC[C@]43C)[C@@]2(C)C[C@@H](C#N)[C@@H]1O (stereo partly drawn) [compound 11]	133.9 °C
C=C1C[C@H](C#N)C[C@@]2(C)C1CC[C@]1(C)C2CCC2C3C(C(C)C)CC[C@]3(CO)CC[C@]21C (stereo partly drawn) [compound 12]	185.1 °C

Values from paper PMC10298530
